Listed here: items and their measured ELISA reading.
target: T1, whole KDR-ECD (Cat. # 676490, Calbiochem) (human, UniProt P35968 20-764); assay: ELISA, KDR-ECD coat 5 ug/mL, antibody 0.1 ug/mL
T1 construct: extracellular domain; Bought soluble protein; also called soluble KDR; VEGF Receptor 2 D1-7
T1 sequence (P35968 20-764): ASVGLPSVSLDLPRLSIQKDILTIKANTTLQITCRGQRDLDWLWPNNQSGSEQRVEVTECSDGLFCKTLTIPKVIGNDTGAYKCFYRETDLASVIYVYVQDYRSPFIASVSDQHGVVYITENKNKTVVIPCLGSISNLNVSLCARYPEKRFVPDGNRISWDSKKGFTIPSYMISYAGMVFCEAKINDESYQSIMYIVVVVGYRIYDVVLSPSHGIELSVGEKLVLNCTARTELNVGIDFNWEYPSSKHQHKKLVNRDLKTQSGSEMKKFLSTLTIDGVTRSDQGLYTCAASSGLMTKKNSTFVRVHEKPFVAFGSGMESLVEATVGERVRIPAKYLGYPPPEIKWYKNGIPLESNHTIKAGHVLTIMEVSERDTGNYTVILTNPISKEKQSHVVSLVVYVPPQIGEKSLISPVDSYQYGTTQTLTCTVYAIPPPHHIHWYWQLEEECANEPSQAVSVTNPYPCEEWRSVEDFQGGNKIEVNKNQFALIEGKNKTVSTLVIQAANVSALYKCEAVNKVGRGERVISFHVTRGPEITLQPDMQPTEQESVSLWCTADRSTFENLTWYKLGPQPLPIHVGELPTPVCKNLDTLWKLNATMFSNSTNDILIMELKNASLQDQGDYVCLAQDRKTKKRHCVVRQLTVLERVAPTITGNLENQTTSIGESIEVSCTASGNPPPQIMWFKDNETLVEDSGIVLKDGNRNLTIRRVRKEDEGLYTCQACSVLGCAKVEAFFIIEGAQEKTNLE
# answer = number (no unit)

Examples with answers:
{"BINDER": "33C3 (antibody, V domains shown, Fully human monoclonal antibody from a XenoMouse hybridoma (IgG2 or IgG4 strain), purified) VH: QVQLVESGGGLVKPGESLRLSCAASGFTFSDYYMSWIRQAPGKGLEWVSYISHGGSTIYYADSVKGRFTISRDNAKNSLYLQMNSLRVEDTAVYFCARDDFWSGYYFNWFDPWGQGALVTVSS VL: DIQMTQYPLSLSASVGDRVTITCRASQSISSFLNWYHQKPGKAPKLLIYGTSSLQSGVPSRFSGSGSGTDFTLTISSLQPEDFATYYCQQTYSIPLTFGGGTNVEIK", "ELISA reading": 0.153}
{"BINDER": "31E11 (antibody, V domains shown, Fully human monoclonal antibody from a XenoMouse hybridoma (IgG2 or IgG4 strain), purified) VH: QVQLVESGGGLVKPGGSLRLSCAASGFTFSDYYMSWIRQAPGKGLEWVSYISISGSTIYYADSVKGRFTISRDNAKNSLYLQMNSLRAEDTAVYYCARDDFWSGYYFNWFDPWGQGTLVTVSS VL: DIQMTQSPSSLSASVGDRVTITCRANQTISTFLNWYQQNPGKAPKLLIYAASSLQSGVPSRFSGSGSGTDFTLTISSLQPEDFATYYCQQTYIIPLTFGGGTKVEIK", "ELISA reading": 0.161}

Could you now look at the following binder, please?
Return value of ELISA reading for input 33B1 (antibody, V domains shown, Fully human monoclonal antibody from a XenoMouse hybridoma (IgG2 or IgG4 strain), purified) VH: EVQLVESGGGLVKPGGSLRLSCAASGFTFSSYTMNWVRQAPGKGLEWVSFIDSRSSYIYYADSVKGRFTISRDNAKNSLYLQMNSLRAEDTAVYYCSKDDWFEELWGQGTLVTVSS VL: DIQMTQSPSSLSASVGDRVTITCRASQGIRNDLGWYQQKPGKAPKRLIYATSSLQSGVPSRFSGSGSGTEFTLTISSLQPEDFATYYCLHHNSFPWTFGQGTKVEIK , no commentary.
0.178
